- Test system: M14
- experiment.description: NCI tumour cell line growth inhibition, 48 h
Active and inactive are the calls of the source. Cut-off read from the data, not from the text of the source: active = GI50 up to about 1.1 µM and inactive = higher.
Would you kindly list GI50 for each of these compounds?

Using the record for Cn1c(Sc2ccc(-c3cccnc3)n2C)ccc1-c1cccnc1 , report its GI50. 17.1 µM (inactive)

Entry O=C(Nc1ccc(-c2cn3ccccc3n2)cc1)c1cc(Br)ccc1O has what GI50? > 100 µM (inactive)

Sample Cc1cccc2oc3c(c(=O)c12)CC(O)C(C)(C)O3 (stereo not given) — what was its GI50? > 100 µM (inactive)

// lookup GI50 for O=C1/C(=C\c2ccc(O)cc2)CCC/C1=C/c1ccc(Cl)c(Cl)c1 2.13 µM (inactive)

Fill in: GI50 of C#CC[C@@H]1C(=O)N(Cc2ccc(OC)cc2)[C@@H](C(C)C)C(=O)N1Cc1ccc(OC)cc1 is ___ 36.5 µM (inactive)

The reported measurements were obtained from ChEMBL document CHEMBL1201862.
